In this section, each of the compounds is paired with its reported pest or weed control at 1000 g/ha.
Test system: IPOHE
Assay: Pre-emergence biological efficacy (Table 3)
Assay type: in vivo
Conditions: Ipomoea hederacea, 312 h, 1000 g/ha, after 13 days, read-out: evaluation (100=total damage to plant; 0=no damage to plant)
Give just the number in %; leave the unit off.

Observe how each entry below is paired with its result.
{"molecule": "CCOC(=O)C(F)(F)c1cccc2cccc(C(F)(F)C(=O)OCC)c12", "pest or weed control at 1000 g/ha, %": 10}
{"molecule": "N#Cc1c(F)ccc(C(F)(F)C(=O)O)c1Cl", "pest or weed control at 1000 g/ha, %": 70}
{"molecule": "COc1c(F)ccc(C(F)(F)C(=O)O)c1F", "pest or weed control at 1000 g/ha, %": 80}
{"molecule": "Cc1c(C#N)cccc1C(F)(F)C(=O)O", "pest or weed control at 1000 g/ha, %": 90}
{"molecule": "O=C(O)C(F)(F)c1cccc2cccc(Cl)c12", "pest or weed control at 1000 g/ha, %": 90}

## Input Please look up its pest or weed control at 1000 g/ha: `COc1c(Cl)ccc(F)c1C(F)(F)C(=O)O`
## Output 50

## Input Please look up its pest or weed control at 1000 g/ha: `COc1c(Cl)ccc(Cl)c1C(F)(F)C(=O)O`
## Output 20

## Input Please look up its pest or weed control at 1000 g/ha: `O=C(O)C(F)(F)c1cccc2ccccc12`
## Output 80

## Input Please look up its pest or weed control at 1000 g/ha: `Nc1cc(Cl)cc(C(F)(F)C(=O)O)c1Cl`
## Output 20

## Input Please look up its pest or weed control at 1000 g/ha: `Cc1noc2cccc(C(F)(F)C(=O)O)c12`
## Output 60
